# System Name: Estrogen receptor (Homo sapiens) (UniProt P03372)
# Sequence (P03372 whole entry, looked up): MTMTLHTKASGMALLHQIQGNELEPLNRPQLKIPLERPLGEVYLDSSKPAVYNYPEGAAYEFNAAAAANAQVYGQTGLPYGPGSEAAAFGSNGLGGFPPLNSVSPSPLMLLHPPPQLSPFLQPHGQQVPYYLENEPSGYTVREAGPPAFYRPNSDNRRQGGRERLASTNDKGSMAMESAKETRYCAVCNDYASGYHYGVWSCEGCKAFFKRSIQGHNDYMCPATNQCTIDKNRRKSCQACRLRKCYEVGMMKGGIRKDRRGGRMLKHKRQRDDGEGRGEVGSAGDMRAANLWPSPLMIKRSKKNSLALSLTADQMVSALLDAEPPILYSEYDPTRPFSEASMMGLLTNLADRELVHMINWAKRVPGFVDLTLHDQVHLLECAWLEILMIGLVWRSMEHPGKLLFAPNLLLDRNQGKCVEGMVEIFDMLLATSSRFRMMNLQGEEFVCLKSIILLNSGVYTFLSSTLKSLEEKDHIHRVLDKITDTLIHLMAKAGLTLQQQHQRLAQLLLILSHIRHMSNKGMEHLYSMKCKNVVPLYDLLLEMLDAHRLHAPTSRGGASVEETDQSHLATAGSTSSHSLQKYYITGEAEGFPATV
# Experiment Description: qHTS assay to identify small molecule antagonists of the estrogen receptor alpha (ER-alpha) signaling pathway (AID 743069)
# Condition Context: HEK293 ER-alpha-UAS-bla, beta-lactamase ratio, antagonist mode; series mostly up to 69.4 µM
Records with an inconclusive call do not appear. Active and inactive are the calls of the source. Calls follow the shape of the dose curve; as a rule, active = well fitted curve in the direction sought with a large enough effect in the signal ratio in the repeat runs (not every such curve was filed as active); inconclusive = weak or mixed curves, or effect the other way; inactive = no such curve, though single readings can be large or run the other way; the % refers to the signal ratio.
Attribute Measured: outcome

Here are 5 compounds together with their reported answers.
Compound	Measured
CC#CCC(C)[C@H](O)/C=C/[C@@H]1[C@H]2C/C(=C/CCCC(=O)O)C[C@H]2C[C@H]1O (stereo partly specified)	inactive
CN1c2c(nc(N)[nH]c2=O)NCC1CNc1ccc(C(=O)NC(CCC(=O)O)C(=O)O)cc1 (stereo unspecified)	inactive
CC[C@H](CC[C@@H](C)[C@H]1CC[C@H]2[C@@H]3CC=C4C[C@@H](O)CC[C@]4(C)[C@H]3CC[C@]12C)C(C)C	inactive
COc1ccc2c(c1)N(C[C@H](C)CN(C)C)c1ccccc1S2	inactive
CC(O)[C@@H]1NC(=O)[C@H](Cc2ccccc2)NC(=O)[C@H](C(C)O)NC(=O)[C@H](CCCCN)NC(=O)[C@H](Cc2c[nH]c3ccccc23)NC(=O)[C@H](Cc2ccccc2)NC(=O)[C@H](Cc2ccccc2)NC(=O)[C@H](CC(N)=O)NC(=O)[C@H](CCCCN)NC(=O)[C@@H](NC(=O)CNC(=O)[C@H](C)N)CSSC[C@@H](C(=O)O)NC(=O)[C@H](CO)NC1=O (stereo partly specified)	inactive

Could you now consider this next compound?
// outcome lookup, compound = CC(=O)O[C@H]1C[C@@H]2CC[C@@H]3[C@H](CC[C@@]4(C)[C@H]3C[C@H](N3CC[N+](C)(C)CC3)[C@@H]4OC(C)=O)[C@@]2(C)C[C@@H]1N1CC[N+](C)(C)CC1 , result: inactive
